# Assay Target: T1, human Aβ (1-40) peptide (human)
# T1 construct: also called Aβ1-40 fibers
# Method: SPR, kinetic fit, immobilized fibers;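 note: surface plasmon resonance on a Biacore chip bearing in vitro formed Aβ1-40 or Aβ1-42 fibers, KD taken as koff/kon by fitting time-resolved sensor responses, based on total Fab concentration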
Metric: pKd
Answer as the number alone; pKd is minus log10 of concentration in mol/L.

Lab note: MS-Roche #3.4H7×3.4L7 Fab (Fab, V domains shown, cross-cloned Fab) VH: QLVESGGGLVQPGGSLRLSCAASGFTFSSYAMSWVRQAPGKGLEWVSVISETGKNIYYADSVKGRFTISRDNSKNTLYLQMNSLRAEDTAVYYCARLTHYARYYRYFDVWGQGTLVTVSS VL: DIVLTQSPATLSLSPGERATLSCRASQRLGRLYLAWYQQKPGQAPRLLIYGASSRATGVPARFSGSGSGTDFTLTISSLEPEDFATYYCQQTYDYPPTFGQGTKVEIKR gave pKd of 8.92

Lab note: MS-Roche #7.11H1×7.2L1 Fab (Fab, V domains shown, cross-cloned Fab; VH entry starts at QLVESGG) VH: QLVESGGGLVQPGGSLRLSCAASGFTFSSYAMSWVRQAPGKGLEWVSGINAAGFRTYYADSVKGRFTISRDNSKNTLYLQMNSLRAEDTAVYYCARGKGNTHKPYGYVRYFDVWGQGTLVTVSS VL: DIVLTQSPATLSLSPGERATLSCRASQYVDRTYLAWYQQKPGQAPRLLIYGASSRATGVPARFSGSGSGTDFTLTISSLEPEDFATYYCQQIYSFPHTFGQGTKVEIKR gave pKd of 8.76

Lab note: MS-Roche #8.1H1×8.2L1 Fab (Fab, V domains shown, cross-cloned Fab) VH: QLVESGGGLVQPGGSLRLSCAASGFTFSSYAMSWVRQAPGKGLEWVSAISRSGSNIYYADSVKGRFTISRDNSKNTLYLQMNSLRAEDTAVYYCARLLSRGYNGYYHKFDVWGQGTLVTVSS VL: DIVLTQSPATLSLSPGERATLSCRASQRVSGRYLAWYQQKPGQAPRLLIYGASSRATGVPARFSGSGSGTDFTLTISSLEPEDFATYYCQQLSSYPPTFGQGTKVEIKR gave pKd of 8.89

Lab note: MS-Roche #7.2H2×7.2L1 Fab (Fab, V domains shown, cross-cloned Fab) VH: QLVESGGGLVQPGGSLRLSCAASGFTFSSYAMSWVRQAPGKGLEWVSAINGTGMKKYYADSVKGRFTISRDNSKNTLYLQMNSLRAEDTAVYYCARGKGNTHKPYGYVRYFDVWGQGTLVTVSS VL: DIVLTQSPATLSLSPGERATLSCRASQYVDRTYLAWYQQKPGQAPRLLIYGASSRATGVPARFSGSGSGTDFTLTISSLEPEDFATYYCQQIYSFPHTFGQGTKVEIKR gave pKd of 8.89

Lab note: MS-Roche #7.11H1×7.11L1 Fab (Fab, V domains shown, cross-cloned Fab; VH entry starts at QLVESGG) VH: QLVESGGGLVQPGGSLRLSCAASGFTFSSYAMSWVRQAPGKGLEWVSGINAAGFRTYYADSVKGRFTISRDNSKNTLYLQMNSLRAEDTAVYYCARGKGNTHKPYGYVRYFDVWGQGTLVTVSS VL: DIVLTQSPATLSLSPGERATLSCRASQRILRIYLAWYQQKPGQAPRLLIYGASSRATGVPARFSGSGSGTDFTLTISSLEPEDFATYYCQQVYSPPHTFGQGTKVEIKR gave pKd of 9.39
